assay: chemical genetic growth profiling, strain panel (AID 1159580);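 also: tested at 20 µM; growth read once vehicle control cultures reached saturation at 30 °C; 1 = growth at the plate median or of vehicle wells; lower values mean less growth of the strain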; settings: S. cerevisiae deletion strains, growth OD, locus YIL066C, strain RNR3
Hit rate of the full screen: of about 5,500 compounds, about 2,000 (36%) were called active. Another 18% or so got no clear call; they are omitted. Rule as the data show it: active = normalized growth mostly below about 0.91 (no sharp cut-off); inconclusive = no clear call, values can overlap the other calls; inactive = mostly above about 0.92. The list shows a part of the results.
The reply should name one outcome from 1 (yes) for active, 0 (no) for inactive

Here's what some known entries look like.
COMPOUND	LABEL
O=C(CCc1ccc(O)cc1)c1c(O)cc(O)cc1O[C@@H]1O[C@H](CO)[C@@H](O)[C@H](O)[C@H]1O	0 (no)
OC(c1cc(C(F)(F)F)nc2c(C(F)(F)F)cccc12)C1CCCCN1 (centres undefined)	0 (no)
CN(C)CCc1c[nH]c2ccc(CS(=O)(=O)N3CCCC3)cc12	0 (no)
Cc1ccc(N(CC2=NCCN2)c2cccc(O)c2)cc1	0 (no)
COc1cccc(OC)c1C(=O)N[C@@H]1C(=O)N2[C@@H]1SC(C)(C)[C@@H]2C(=O)O	0 (no)
COc1ccc(C(=O)c2ccccc2)c(O)c1O	0 (no)
CN1C(=O)CCS(=O)(=O)C1c1ccc(Cl)cc1 (centres undefined)	0 (no)
COc1cc(-c2coc3cc(O[C@@H]4O[C@H](CO)[C@@H](O)[C@H](O)[C@H]4O)c(OC)c(O)c3c2=O)cc(O)c1OC	0 (no)

Note: attention shifts to another entry.
I'd appreciate the recorded outcome for COc1ccc(C(=O)c2ccc(O)cc2)c(O)c1O from this test.
0 (no)

Cited source for all entries: PubChem BioAssay AID1159580
